Molecular target: T1, human IL-5 with his-tag (rhIL-5-his) (human, UniProt P05113 20-134)
T1 construct: It was expressed in HEK293 and purified from the supernatant; also called HuIL-5; recombinant human IL-5
T1 sequence: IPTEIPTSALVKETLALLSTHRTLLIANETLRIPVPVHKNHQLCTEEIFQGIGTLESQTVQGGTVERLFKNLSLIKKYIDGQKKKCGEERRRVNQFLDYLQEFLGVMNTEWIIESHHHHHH
Test: FACS blocking: biotin-IL-5 (100 ng/ml) binding to IL-5Rα/β-CHOS cells, antibody diluted
For each record, write down the corresponding IC50.
Numbers only, in µg/mL.

Reference set, count: 4
h1705-008 (antibody, human IgG1, kappa, V domains shown, IgG1 with M252Y/S254T/T256E, kappa) VH: EVQLVESGGGLVQPGGSLRLSCAASGFTFSHYYMAWVRQAPGKGLEWVTSISYEGDITYYGDSVKGRFTISRDNSKNTLYLQMNSLRAEDTATYYCASQTLRESFDYWGQGTLVTVSS VL: DIQMTQSPSSVSASVGDRVTITCRASQDIANYLSWYQQKPGKSPKLLIYGTSNLEVGVPSRFSGSRSGTDFTLTISSLQPEDFATYYCLQDKEFPRTFGGGTKVEIKR    0.0145
h1779-014 (antibody, human IgG1, kappa, V domains shown, See recheck) VH: EVQLVQSGAEVKKPGASVKVSCKASGYTFTDYIIHWVKQAPGQGLEWIGYFNPNSGGSNYNENFKRKATMTADKSISTAYLEFSRLRSEDTAVYYCARRIAWDHWYFDFWGQGTMVTVSS VL: DIQMTQSPSSLSASVGDRVTITCLASEGISNDVAWYQQKPGKSPKLLVYAASRLQDGVPSRFSGSGSGTDYTFTISSLQPEDIATYYCQQGYKTPLTFGQGTKLEIKR    0.0496
h1780-017 (antibody, human IgG1, kappa, V domains shown) VH: EVQLVQSGAEVKKPGASVKVSCKASGYTFTEYLIHWVRQAPGQGLEWIGYINPYSGGTVYNEKFKSRATLTVDKSISTAYMEFSRLRSDDTAVYYCARDGGYSDPLDYWGQGTMVTVSS VL: DTVLTQSPATLSLSPGERATLSCRASEGLTSYMHWYQQKPGQAPRLLIYKASNLASGVPARFSGSGSGTDFTLTISSLEPEDFATYFCQQNWNDPWTFGGGTKVEIKR    0.016
h1706-009 (antibody, human IgG1, kappa, V domains shown) VH: EVQLVESGGGLVQPGGSLRLSCAASGFTFSHYYMAWVRQAPGKGLEWVSSINYEGNSAYYGDSVKGRFTISRDNSKNTLYLQMNSLRAEDTAVYYCATETLRESLDYWGQGTMVTVSS VL: DIQMTQSPSSVSASVGDRVTITCRASQDIGNYLSWYQQKPGKSPKLMIYSASNLEVGVPSRFSGSGSGTDYTLTISSLQPEDFATYFCLQHKQFPRTFGGGTKVEIKR    0.0247

Now for a further binder.
Data request, read-out IC50, for Hu39D10 (antibody, human IgG4 S228P, kappa, V domains shown, Anti-IL-5 antibody of WO2012083370A1, used as positive control; also called positive control; positive antibody) VH: EVQLVESGGGLVQPGGSLRLSCAVSGLSLTSNSVNWIRQAPGKGLEWVGLIWSNGDTDYNSAIKSRFTISRDTSKSTVYLQMNSLRAEDTAVYYCAREYYGYFDYWGQGTLVTVSS VL: DIQMTQSPSSLSASVGDRVTITCLASEGISSYLAWYQQKPGKAPKLLIYGANSLQTGVPSRFSGSGSATDYTLTISSLQPEDFATYYCQQSYKFPNTFGQGTKVEVKR 0.0251
